Cited source: patent US20190290656A1

For each entry below, report its IC50 value.
- Tested on: human embryonic kidney HEK293 cells
- experimental details: MTT cytotoxicity against non-tumor cells
- Assay type: cell-based
- recorded conditions: HEK293 non-tumor cells, 72 h, MTT
Form entry: value (µM) — number only.

Lookup: For the compound Cc1c(C)c2c3c4c1=CC=C[N]4[Pt+2][N]3C=CC=2.N[C@H]1CCCC[C@@H]1N [[Pt(DACH)(56Phen)], reference compound] , what IC50 is on record?
Found: 1.12

Lookup: Repeat for the following compound: [NH2][Pt]([NH2])([Cl])[Cl] [CDDP, Cisplatin, reference compound]
Found: 19.6

====

- Test system: BxPC3 cells
- experimental details: MTT cytotoxicity assay, BxPC3
- Type: cell-based, human
- recorded conditions: BxPC3, 72 h exposure, MTT; read-out: IC50 (median growth inhibitory concentration)
metric: pIC50
pIC50 here: minus log base 10 of the concentration, concentration in moles per litre.

Lookup: Form field - read-out: pIC50; system: BxPC3 cells; submitted item: CCCC(CCC)C(=O)[O][Pt]12([O]C(=O)C(CCC)CCC)([NH]C3CCCCC3[NH]1)[O]C(=O)C(=O)[O]2 (stereo not drawn) [III, [Pt(DACH)(C8H15O2)2(ox)]]
Found: 4.84

Lookup: Repeat for the following compound: CC(=O)[O][Pt]([NH2])([NH2])([Cl])([Cl])[O]C(=O)CCCc1ccccc1 [VII, Ctc-[Pt(NH3)2(C2H3O2)(C10H11O2)Cl2]]
Found: 4.99

Lookup: Repeat for the following compound: [NH2][Pt]([NH2])([Cl])([Cl])([O]C(=O)CCCc1ccccc1)[O]C(=O)CCCc1ccccc1 [Compound VI, ctc-[Pt(NH3)2(C10H11O2)2Cl2]]
Found: 6.72

Lookup: Repeat for the following compound: O=C(CCCc1ccccc1)[O][Pt]12([O]C(=O)CCCc3ccccc3)([NH]C3CCCCC3[NH]1)[O]C(=O)C(=O)[O]2 (stereo not drawn) [VIII, [Pt(DACH)(C10H11O2)2(ox)]]
Found: 5.12

Lookup: Repeat for the following compound: O=C1[O][Pt]2([NH][C@@H]3CCCC[C@H]3[NH]2)[O]C1=O [OXP, oxaliplatin, reference compound]
Found: 5.38

Lookup: Repeat for the following compound: C1CCNCC1.CCCC(CCC)C(=O)[O][Pt]([OH])([Cl])[Cl].CCCCN
Found: 5.35

====

- System: BxPC3 cells
- experimental details: MTT cytotoxicity assay, BxPC3
- Type: cell-based, human
- recorded conditions: BxPC3, 72 h exposure, MTT; read-out: IC50 (median growth inhibitory concentration)
For each entry below, report its IC50 value.
Value and unit, in that order.

Lookup: For the compound CCCC(CCC)C(=O)[O][Pt]([NH2])([NH2])([Cl])([Cl])[O]C(C)=O [II, Pt(NH3)2Cl2(C2H3O2)(C8H15O2)]] , what IC50 is on record?
Found: 3.54 µM

Lookup: Repeat for the following compound: CCCC(CCC)C(=O)[O][Pt]([Cl])([Cl])[O]C(=O)C(CCC)CCC.N.N [I, Ctc-Pt(NH3)2(C8H15O2)2Cl2]]
Found: 1.13 µM

Lookup: Repeat for the following compound: [NH2][Pt]([NH2])([Cl])[Cl] [CDDP, Cisplatin, reference compound]
Found: 11.4 µM
